Recorded values, source PubChem BioAssay (NCI).

system: OVCAR-4 ovarian; assay: NCI tumour cell line growth inhibition, 48 h
Please respond with reported TGI for every item in the list.
Write the value in µM as a bare number.

Request: Which TGI value is on record for "COc1cc2cc3c4c(cc(OC)c(OC)c4c2cc1OC)CCN3C(=O)OCCN1CCNCC1" ?
Result: 31.3

Request: Next up: COC1(OC)CC2C(=O)N(Cc3ccccc3)C1C(S(=O)(=O)c1ccccc1)C2S(=O)(=O)c1ccccc1 (stereo unspecified)
Result: 28.6

Request: Okay, and "NC(=O)NC1C(c2ccccc2)=C1c1ccccc1" ?
Result: 30.7

Request: Same read-out for "[Cl][Hg][c]1cc(Br)cc(Br)c1" ?
Result: 7.69

Request: Same again, this time with CC(C)(C)[Si](C)(C)OCC1OC(n2ccc(N)nc2=O)C(O[Si](C)(C)C(C)(C)C)C1O[Si](C)(C)C(C)(C)C (stereo unspecified)
Result: 2.21

Request: "O=c1cnn(C/C=C/CBr)c(=O)[nH]1"
Result: 48

Request: Further, for CC(C)CC1C(=O)NCCC(NC(=O)C(Cc2ccc(OC(C)(C)C)cc2)NC(=O)OC(C)(C)C)C(=O)NC(Cc2ccccc2)C(=O)NC(Cc2ccccc2)NC1=O (stereo unspecified) ?
Result: 34.6

###

system: A498 renal; test: NCI tumour cell line growth inhibition, 48 h; in the data active means GI50 below about 0.43 µM; inactive means the rest
Your reply should match one of these outcome classes. active, inactive

Request: Any idea what this test logged for "N#CC(=C1C=CC(=NO)C=C1)c1ccccc1" ?
Result: inactive

Request: Quick one: COc1cc(C2CC(c3cccc(Br)c3)=NN2C(C)=O)cc(OC)c1OC (stereo not given)
Result: inactive

Request: Proceed to CCC(C)n1ncn(-c2ccc(N3CCN(c4ccc(OCC5COC(Cn6cncn6)(c6ccc(Cl)cc6Cl)O5)cc4)CC3)cc2)c1=O (stereo not given)
Result: inactive

Request: Also, "CCCCCCNC(=O)c1cc(NCc2cc(O)ccc2O)ccc1O" please.
Result: inactive

Request: Ok, now O=C(OC(CNc1cc(=O)n(Cc2ccccc2)c(=O)n1Cc1ccccc1)CN1CCCC1)c1ccccc1 (stereo not given)
Result: inactive

Request: Moving on to the next molecule: "Clc1nc2ccccc2nc1CI"
Result: inactive

Request: Also check "COc1cc(N(CCC#N)CCC#N)ccc1/C(N=Nc1ccc([N+](=O)[O-])cc1)=N/NC(=O)c1cc(Br)ccc1O"
Result: inactive

Request: Now give it for "[Cl][Hg][c]1cc(Br)cc(Br)c1" too.
Result: inactive

Request: Also, CC(C)=CCNc1ncnc2c1ncn2C1OC(CO)C(O)C1O (stereo not given) please.
Result: active

Request: Also check "CCN(CC)CCOc1ccc(-c2nc3cc(Cl)ccc3s2)cc1"
Result: inactive

Request: Cool, now "CN(C)CCCNC(=O)c1cc2[nH]c3c(cnc4ccc([N+](=O)[O-])cc43)c(=O)c2n1C"
Result: inactive

Request: CCC[CH2][Sn]1([CH2]CCC)[O]N=C(c2ccccc2)C(c2ccccc2)[O]1 (stereo not given) ?
Result: inactive

Request: Input "CN1CCN(CCOc2ccc(-c3cnc4c(-c5ccccc5F)cnn4c3)cc2)CC1"
Result: inactive

Request: Consider next the molecule CCN1CCN(C(c2ccc(C(F)(F)F)cc2)c2ccc3cccnc3c2O)CC1 (stereo not given) in the same way.
Result: inactive

Request: "COc1cnc2c(c1)C(=O)c1c-2n(CCCNC(C)C)c(=O)c2cc(Cl)ccc12" ?
Result: active
